Values were extracted from paper PMC11995216.

- System: PAMPA
- CONDITION SET: Papp (x 10^-6 cm/s) / experiment 3; UV detection
ENDPOINT NAME: Papp (×10⁻⁶ cm/s)

Solved entries (count: 4):
MOLECULAR STRING	SYSTEM NAME	ENDPOINT NAME	EXPERIMENTAL RESULT
CCCCC[C@H](OC(=O)[C@@H](C)N(C)C(=O)[C@H](CCCCC)OC(=O)[C@@H](C)N(C)C(=O)[C@H](CCCCC)OC(=O)[C@@H](C)N(C)C(=O)[C@H](CCCCC)OC(=O)[C@@H](C)N(C)C(=O)[C@H](CCCCC)OC(=O)[C@@H](C)N(C)C(=O)[C@H](CCCCC)OC(=O)[C@@H](C)N(C)C(=O)OC(C)(C)C)C(=O)OCc1ccccc1	PAMPA	Papp	0.41
CCCCC[C@H](OC(=O)[C@@H](C)N(C)C(=O)OC(C)(C)C)C(=O)OCc1ccccc1	PAMPA	Papp	3.27
CCCCC[C@H](OC(=O)[C@@H](C)N(C)C(=O)[C@H](CCCCC)OC(=O)[C@@H](C)N(C)C(=O)[C@H](CCCCC)OC(=O)[C@@H](C)N(C)C(=O)OC(C)(C)C)C(=O)OCc1ccccc1	PAMPA	Papp	3.52
CCCCC[C@H](OC(=O)[C@@H](C)N(C)C(=O)[C@H](CCCCC)OC(=O)[C@@H](C)N(C)C(=O)[C@H](CCCCC)OC(=O)[C@@H](C)N(C)C(=O)[C@H](CCCCC)OC(=O)[C@@H](C)N(C)C(=O)[C@H](CCCCC)OC(=O)[C@@H](C)N(C)C(=O)OC(C)(C)C)C(=O)OCc1ccccc1	PAMPA	Papp	1.77

[a] CCCCC[C@H](OC(=O)[C@@H](C)N(C)C(=O)[C@H](CCCCC)OC(=O)[C@@H](C)N(C)C(=O)[C@H](CCCCC)OC(=O)[C@@H](C)N(C)C(=O)[C@H](CCCCC)OC(=O)[C@@H](C)N(C)C(=O)OC(C)(C)C)C(=O)OCc1ccccc1
[b] CCCCC[C@H](OC(=O)[C@@H](C)N(C)C(=O)[C@H](CCCCC)OC(=O)[C@@H](C)N(C)C(=O)OC(C)(C)C)C(=O)OCc1ccccc1
Exercise: Please state the entry with greater Papp among a and b . Which one? Tell me its label.
Solution: b
(b: 3.8 ×10⁻⁶ cm/s, a: 2.01 ×10⁻⁶ cm/s)

* * *

- Tested on: PAMPA
- CONDITION SET: Papp (x 10^-6 cm/s) / experiment 5; UV detection
ENDPOINT NAME: Papp (×10⁻⁶ cm/s)

MOLECULAR STRING	Papp, ×10⁻⁶ cm/s
CCCCC[C@H](OC(=O)[C@@H](C)N(C)C(=O)[C@H](CCCCC)OC(=O)[C@@H](C)N(C)C(=O)[C@H](CCCCC)OC(=O)[C@@H](C)N(C)C(=O)OC(C)(C)C)C(=O)OCc1ccccc1	3.18
CCCCC[C@H](OC(=O)[C@@H](C)N(C)C(=O)[C@H](CCCCC)OC(=O)[C@@H](C)N(C)C(=O)OC(C)(C)C)C(=O)OCc1ccccc1	3.9
CCCCC[C@H](OC(=O)[C@@H](C)N(C)C(=O)[C@H](CCCCC)OC(=O)[C@@H](C)N(C)C(=O)[C@H](CCCCC)OC(=O)[C@@H](C)N(C)C(=O)[C@H](CCCCC)OC(=O)[C@@H](C)N(C)C(=O)[C@H](CCCCC)OC(=O)[C@@H](C)N(C)C(=O)OC(C)(C)C)C(=O)OCc1ccccc1	1.56
CCCCC[C@H](OC(=O)[C@@H](C)N(C)C(=O)[C@H](CCCCC)OC(=O)[C@@H](C)N(C)C(=O)[C@H](CCCCC)OC(=O)[C@@H](C)N(C)C(=O)[C@H](CCCCC)OC(=O)[C@@H](C)N(C)C(=O)[C@H](CCCCC)OC(=O)[C@@H](C)N(C)C(=O)[C@H](CCCCC)OC(=O)[C@@H](C)N(C)C(=O)OC(C)(C)C)C(=O)OCc1ccccc1	0.44

[1] CCCCC[C@H](OC(=O)[C@@H](C)N(C)C(=O)OC(C)(C)C)C(=O)OCc1ccccc1
[2] CCCCC[C@H](OC(=O)[C@@H](C)N(C)C(=O)[C@H](CCCCC)OC(=O)[C@@H](C)N(C)C(=O)[C@H](CCCCC)OC(=O)[C@@H](C)N(C)C(=O)[C@H](CCCCC)OC(=O)[C@@H](C)N(C)C(=O)OC(C)(C)C)C(=O)OCc1ccccc1
Exercise: Field: lower recorded Papp (choose 1 or 2 ) Which one? Tell me its label.
Solution: 2
(2: 2.24 ×10⁻⁶ cm/s, 1: 3.87 ×10⁻⁶ cm/s)
